Biological target: Histamine H2 receptor (Homo sapiens, UniProt P25021); note: assay procedure not described here
Sequence (P25021 whole entry): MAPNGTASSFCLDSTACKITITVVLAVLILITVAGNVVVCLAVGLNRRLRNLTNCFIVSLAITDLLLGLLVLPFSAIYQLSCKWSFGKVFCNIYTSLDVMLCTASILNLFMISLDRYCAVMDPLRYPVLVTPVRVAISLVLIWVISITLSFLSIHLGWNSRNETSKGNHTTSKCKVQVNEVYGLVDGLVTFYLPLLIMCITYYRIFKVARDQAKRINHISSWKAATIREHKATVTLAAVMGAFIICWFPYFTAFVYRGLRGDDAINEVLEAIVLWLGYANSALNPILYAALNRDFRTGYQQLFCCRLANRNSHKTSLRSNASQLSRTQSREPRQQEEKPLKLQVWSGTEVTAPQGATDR
Assay type: functional, cell-based
resultType: AC50

compound	subjectOfTest	AC50
O=C(CCCN1CCC2(CC1)C(=O)NCN2c1ccccc1)c1ccc(F)cc1	Histamine H2 receptor (Homo sapiens, UniProt P25021)	> 30 µM

# per-item lookup of AC50; items listed below
1. COC1=C(OC)C(=O)C(CCCCCCCCCCO)=C(C)C1=O
2. CN1c2ccccc2C(NCCCCCCC(=O)O)c2ccc(Cl)cc2S1(=O)=O (stereo not drawn)
3. CN1CCN(CCCN2c3ccccc3Sc3ccc(S(=O)(=O)N(C)C)cc32)CC1
4. CC#CCn1c(N2CCC[C@@H](N)C2)nc2c1c(=O)n(Cc1nc(C)c3ccccc3n1)c(=O)n2C
5. CC[C@@H](CO)NC(=O)[C@@H]1C=C2c3cccc4[nH]cc(c34)C[C@H]2N(C)C1
6. CCCCCCNC(=O)n1cc(F)c(=O)[nH]c1=O

> 10 µM
> 30 µM
> 30 µM
> 10 µM
0.058 µM
> 30 µM

# per-item lookup of AC50; items listed below
1. CC(=O)OCC(CCn1cnc2cnc(N)nc21)COC(C)=O
2. C#C[C@]1(O)CC[C@H]2[C@@H]3CCC4=CC(=O)CCC4=C3C=C[C@@]21CC
3. CC1(C)S[C@@H]2[C@H](NC(=O)[C@H](N)c3ccc(O)cc3)C(=O)N2[C@H]1C(=O)O
4. Cc1cnc(NC(=O)C2=C(O)c3ccccc3S(=O)(=O)N2C)s1
5. CNC(=O)Oc1ccc2c(c1)[C@]1(C)CCN(C)[C@@H]1N2C
6. COc1ccnc(C[S+]([O-])c2nc3ccc(OC(F)F)cc3[nH]2)c1OC (stereo not drawn)

1. > 10 µM
2. > 30 µM
3. > 30 µM
4. > 10 µM
5. > 30 µM
6. > 10 µM

# per-item lookup of AC50; items listed below
1. COCCOC(=O)C1=C(C)NC(C)=C(C(=O)OC/C=C/c2ccccc2)C1c1cccc([N+](=O)[O-])c1 (stereo not drawn)
2. CCCCNc1ccc(C(=O)OCCN(C)C)cc1
3. O=C(O)c1cc(O)c2c3nc4ccccc4oc-3cc(=O)c2n1
4. CC(C)OC(=O)C(C(=O)OC(C)C)=C1SC=CS1 [MALOTILATE]
5. CCOC(=O)NNc1ccc(N(CC)CC(C)O)nn1 (stereo not drawn)

> 30 µM
> 10 µM
> 30 µM
> 30 µM
> 30 µM
